- Test system: Wnt activity (Sp5-Luc reporter in SW480 cells)
- Method Notes: Screening assay for Wnt activity: Sp5-Luc reporter gene assay in SW480 colon carcinoma cells
- Format: cell-based, human
- Conditions: Homo sapiens, 36 to 48 hours
Metric Name: EC50 (nM)

>  <Compound>
Cn1cc(-c2ccc3[nH]nc(C(=O)NCC(F)(F)CN4CCCC4)c3c2)cn1 [Compound 106]

>  <Experimental System>
Wnt activity (Sp5-Luc reporter in SW480 cells)

>  <EC50 [nM]>
685

$$$$
>  <Compound>
O=C(Nc1ccc(F)cc1)c1n[nH]c2ccc(-c3cnn(C4CC4)c3)cc12 [Compound 46]

>  <Experimental System>
Wnt activity (Sp5-Luc reporter in SW480 cells)

>  <EC50 [nM]>
1460

$$$$
>  <Compound>
CC(C)n1cc(-c2ccc3[nH]nc(C(=O)Nc4ccc(CN5CCCC5)cc4)c3c2)cn1 [Compound 71]

>  <Experimental System>
Wnt activity (Sp5-Luc reporter in SW480 cells)

>  <EC50 [nM]>
1490

$$$$
>  <Compound>
CC(C)(F)CN1CCC(NC(=O)c2n[nH]c3ccc(-c4cnn(C5CC5)c4)cc23)CC1 [Compound 40]

>  <Experimental System>
Wnt activity (Sp5-Luc reporter in SW480 cells)

>  <EC50 [nM]>
1720

$$$$

(I) Cc1ncc(-c2ccc3[nH]nc(C(=O)NC4CCC(F)(F)CC4)c3c2)n1C [Compound 22]
(II) CN1CCC(Oc2cccc(NC(=O)c3n[nH]c4cc(F)c(-c5cnn(C)c5)cc34)c2)CC1 [Compound 151]
(III) O=C(Nc1ccc(F)cc1)c1n[nH]c2cc(F)c(-c3cnn(C4CCNCC4)c3)cc12 [Compound 49]
(IV) CC(C)CN1CC[C@@H](NC(=O)c2n[nH]c3ccc(-c4cnn(C)c4)cc23)[C@@H](F)C1 [Compound 31]
Hello, I need these entries ordered by EC50, highest reading first. Thanks! Hello, could you send the labels back in the order asked? Thank you. I, IV, III, II
(I: 2010 nM, IV: 610 nM, III: 256 nM, II: 113 nM)
